tested on: S. pneumoniae+ GC 4465; assay: MIC, broth microdilution; conditions: Streptococcus pneumoniae, read-out: MINIMAL INHIBITORY CONCENTRATION MIC, pre-incubated in Water

substance_smiles: CCCN(CC(=O)Nc1cc(N(C)C)c2c(c1O)C(=O)C1=C(O)[C@]3(O)C(=O)C(C(N)=O)=C(O)[C@@H](N(C)C)[C@@H]3C[C@@H]1C2)C(=O)OCOC(=O)c1ccc(C(C)(C)C)cc1
tgt: S. pneumoniae+ GC 4465
result_units: mg/L
MIC: 0.5
//
substance_smiles: CCC(C)(C)C(=O)OCOC(=O)N(CC(=O)Nc1cc(N(C)C)c2c(c1O)C(=O)C1=C(O)[C@]3(O)C(=O)C(C(N)=O)=C(O)[C@@H](N(C)C)[C@@H]3C[C@@H]1C2)C(C)(C)C
tgt: S. pneumoniae+ GC 4465
result_units: mg/L
MIC: 4
//
substance_smiles: CCCN(CC(=O)Nc1cc(N(C)C)c2c(c1O)C(=O)C1=C(O)[C@]3(O)C(=O)C(C(N)=O)=C(O)[C@@H](N(C)C)[C@@H]3C[C@@H]1C2)C(=O)OCOC(=O)c1cc(C)cc(C)c1
tgt: S. pneumoniae+ GC 4465
result_units: mg/L
MIC: 4
//
substance_smiles: CC(C)C(=O)OCOC(=O)N(CC(=O)Nc1cc(N(C)C)c2c(c1O)C(=O)C1=C(O)[C@]3(O)C(=O)C(C(N)=O)=C(O)[C@@H](N(C)C)[C@@H]3C[C@@H]1C2)C(C)(C)C
tgt: S. pneumoniae+ GC 4465
result_units: mg/L
MIC: 4
//
substance_smiles: CCCN(CC(=O)Nc1cc(N(C)C)c2c(c1O)C(=O)C1=C(O)[C@]3(O)C(=O)C(C(N)=O)=C(O)[C@@H](N(C)C)[C@@H]3C[C@@H]1C2)C(=O)OCOC(=O)c1ccc(-c2ccccc2)cc1
tgt: S. pneumoniae+ GC 4465
result_units: mg/L
MIC: 1

---

Parameter MIC: see the listing below.
tested on: S. aureus GC 1131; assay: MIC, broth microdilution; conditions: Staphylococcus aureus, GC1131, read-out: MINIMAL INHIBITORY CONCENTRATION MIC, pre-incubated in Mouse Serum
endpoint_name: MIC (µg/mL)

substance_smiles: CCC(C)(C)C(=O)OCOC(=O)N(CC(=O)Nc1cc(N(C)C)c2c(c1O)C(=O)C1=C(O)[C@]3(O)C(=O)C(C(N)=O)=C(O)[C@@H](N(C)C)[C@@H]3C[C@@H]1C2)C(C)(C)C
obs_value: 2

substance_smiles: CN(C)c1cc(NC(=O)CN(C(=O)OCOC(=O)c2ccc(C(C)(C)C)cc2)C(C)(C)C)c(O)c2c1C[C@H]1C[C@H]3[C@H](N(C)C)C(O)=C(C(N)=O)C(=O)[C@@]3(O)C(O)=C1C2=O
obs_value: 1

substance_smiles: Cc1ccc(C(=O)OCOC(=O)N(CC(=O)Nc2cc(N(C)C)c3c(c2O)C(=O)C2=C(O)[C@]4(O)C(=O)C(C(N)=O)=C(O)[C@@H](N(C)C)[C@@H]4C[C@@H]2C3)C(C)(C)C)cc1
obs_value: 1

---

system: S. pneumoniae+ GC 4465; assay: MIC, broth microdilution; conditions: Streptococcus pneumoniae, S. pneumoniae+ GC 4465; Water pre-incubation
Parameter MIC: see the listing below.
endpoint_name: MIC (µg/mL)

molecule: CCCCN(CC(=O)Nc1cc(N(C)C)c2c(c1O)C(=O)C1=C(O)[C@]3(O)C(=O)C(C(N)=O)=C(O)[C@@H](N(C)C)C3CC1C2)C(=O)OCOC(=O)c1ccc(OC)cc1 (some centres unmarked) [Example 2]
obs_value: 4

molecule: CCCN(CC(=O)Nc1cc(N(C)C)c2c(c1O)C(=O)C1=C(O)[C@]3(O)C(=O)C(C(N)=O)=C(O)[C@@H](N(C)C)[C@@H]3C[C@@H]1C2)C(=O)OCOC(=O)C1CCC1 [Example 7]
obs_value: 2

molecule: CCCCN(CC(=O)Nc1cc(N(C)C)c2c(c1O)C(=O)C1=C(O)[C@]3(O)C(=O)C(C(N)=O)=C(O)[C@@H](N(C)C)[C@@H]3C[C@@H]1C2)C(=O)OCOC(=O)c1ccc(F)cc1 [Example 4]
obs_value: 4

molecule: CCCN(CC(=O)Nc1cc(N(C)C)c2c(c1O)C(=O)C1=C(O)[C@]3(O)C(=O)C(C(N)=O)=C(O)[C@@H](N(C)C)[C@@H]3C[C@@H]1C2)C(=O)OCOC(=O)C(C)C [Example 10]
obs_value: 1

molecule: CCCN(CC(=O)Nc1cc(N(C)C)c2c(c1O)C(=O)C1=C(O)[C@]3(O)C(=O)C(C(N)=O)=C(O)[C@@H](N(C)C)[C@@H]3C[C@@H]1C2)C(=O)OCC [Example 15]
obs_value: 4

---

test system: E. faecium GC 2243; assay: MIC, broth microdilution; settings: Enterococcus faecium, GC2243, E. faecium GC 2243; Mouse Serum pre-incubation
Parameter MIC: see the listing below.

compound: CCCCN(CC(=O)Nc1cc(N(C)C)c2c(c1O)C(=O)C1=C(O)[C@]3(O)C(=O)C(C(N)=O)=C(O)[C@@H](N(C)C)C3CC1C2)C(=O)OCOC(=O)C(C)C (some centres unmarked)
MIC: 1 µg/mL

compound: CCCCN(CC(=O)Nc1cc(N(C)C)c2c(c1O)C(=O)C1=C(O)[C@]3(O)C(=O)C(C(N)=O)=C(O)[C@@H](N(C)C)C3CC1C2)C(=O)OCOC(=O)c1ccc(C)cc1 (some centres unmarked)
MIC: 1 µg/mL

compound: CCCN(CC(=O)Nc1cc(N(C)C)c2c(c1O)C(=O)C1=C(O)[C@]3(O)C(=O)C(C(N)=O)=C(O)[C@@H](N(C)C)[C@@H]3C[C@@H]1C2)C(=O)OCOC(=O)c1ccc(C)cc1
MIC: 0.5 µg/mL

compound: CCCCN(CC(=O)Nc1cc(N(C)C)c2c(c1O)C(=O)C1=C(O)[C@]3(O)C(=O)C(C(N)=O)=C(O)[C@@H](N(C)C)[C@@H]3C[C@@H]1C2)C(=O)OCOC(=O)c1ccc(F)cc1
MIC: 0.5 µg/mL

compound: CCCN(CC(=O)Nc1cc(N(C)C)c2c(c1O)C(=O)C1=C(O)[C@]3(O)C(=O)C(C(N)=O)=C(O)[C@@H](N(C)C)[C@@H]3C[C@@H]1C2)C(=O)OCOC(=O)Cc1ccccc1
MIC: 0.12 µg/mL

---

test system: E. coli GC 2233; assay: MIC, broth microdilution; settings: Escherichia coli, GC2233, E. coli GC 2233; Water pre-incubation
endpoint_name: MIC (µg/mL)

compound: CCCN(CC(=O)Nc1cc(N(C)C)c2c(c1O)C(=O)C1=C(O)[C@]3(O)C(=O)C(C(N)=O)=C(O)[C@@H](N(C)C)[C@@H]3C[C@@H]1C2)C(=O)OCOC(=O)C(C)C [Example 10]
endpoint_name: MIC
obs_value: 8
//
compound: CCCCN(CC(=O)Nc1cc(N(C)C)c2c(c1O)C(=O)C1=C(O)[C@]3(O)C(=O)C(C(N)=O)=C(O)[C@@H](N(C)C)[C@@H]3C[C@@H]1C2)C(=O)OCOC(=O)C(C)(C)C [Example 13]
endpoint_name: MIC
obs_value: 8
//
compound: CCCCN(CC(=O)Nc1cc(N(C)C)c2c(c1O)C(=O)C1=C(O)[C@]3(O)C(=O)C(C(N)=O)=C(O)[C@@H](N(C)C)C3CC1C2)C(=O)OCOC(=O)C(C)C (stereo partly shown) [Example 1]
endpoint_name: MIC
obs_value: 16
//
compound: CCCN(CC(=O)Nc1cc(N(C)C)c2c(c1O)C(=O)C1=C(O)[C@]3(O)C(=O)C(C(N)=O)=C(O)[C@@H](N(C)C)[C@@H]3C[C@@H]1C2)C(=O)OCOC(=O)C(C)(C)C [Example 9]
endpoint_name: MIC
obs_value: 4

---

test system: Staph.; test: Range of MIC for Staph. strains, including MRSA; settings: Staphylococcus aureus, read-out: Minimum inhibitory concentration (MIC), Staph (Human Serum)

compound: CN(C)c1cc(NC(=O)CN(C(=O)OCOC(=O)C2CC2)C(C)(C)C)c(O)c2c1C[C@H]1C[C@H]3[C@H](N(C)C)C(O)=C(C(N)=O)C(=O)[C@@]3(O)C(O)=C1C2=O [Example 56]
MIC: 0.25 to 2 µg/mL
//
compound: CCC(C)(C)C(=O)OCOC(=O)N(CC(=O)Nc1cc(N(C)C)c2c(c1O)C(=O)C1=C(O)[C@]3(O)C(=O)C(C(N)=O)=C(O)[C@@H](N(C)C)[C@@H]3C[C@@H]1C2)C(C)(C)C [Example 44]
MIC: 2 to 4 µg/mL
//
compound: CCCCOC(=O)N(CC(=O)Nc1cc(N(C)C)c2c(c1O)C(=O)C1=C(O)[C@]3(O)C(=O)C(C(N)=O)=C(O)[C@@H](N(C)C)[C@@H]3C[C@@H]1C2)C(C)(C)C [Example 58]
MIC: 4 µg/mL
//
compound: CCCCC(=O)OCOC(=O)N(CC(=O)Nc1cc(N(C)C)c2c(c1O)C(=O)C1=C(O)[C@]3(O)C(=O)C(C(N)=O)=C(O)[C@@H](N(C)C)[C@@H]3C[C@@H]1C2)C(C)(C)C [Example 61]
MIC: 0.5 to 1 µg/mL
//
compound: CC(C)C(=O)OCOC(=O)N(CC(=O)Nc1cc(N(C)C)c2c(c1O)C(=O)C1=C(O)[C@]3(O)C(=O)C(C(N)=O)=C(O)[C@@H](N(C)C)[C@@H]3C[C@@H]1C2)C(C)(C)C [Example 45]
MIC: 0.12 to 1 µg/mL
//
compound: CN(C)c1cc(NC(=O)CN(C(=O)OCOC(=O)c2ccc(C(F)(F)F)cc2)C(C)(C)C)c(O)c2c1C[C@H]1C[C@H]3[C@H](N(C)C)C(O)=C(C(N)=O)C(=O)[C@@]3(O)C(O)=C1C2=O [Example 55]
MIC: 1 to 4 µg/mL
//
compound: CCCCCCC(=O)OCOC(=O)N(CCC)CC(=O)Nc1cc(N(C)C)c2c(c1O)C(=O)C1=C(O)[C@]3(O)C(=O)C(C(N)=O)=C(O)[C@@H](N(C)C)[C@@H]3C[C@@H]1C2 [Example 19]
MIC: 0.12 to 1 µg/mL

The measured values listed here are drawn from patent US20070049564A1.
